biological target: CYP2C9 (Homo sapiens); construct: purchased Corning Inc; host or cells: baculovirus-infected insect cells; assay: Cytochrome P450 inhibition assay (P450-Glo) CYP2C9; format: in vitro ADME; conditions: compounds 10 μM; miltefosine 10 μM or 1 μM
Sequence (P11712 whole entry): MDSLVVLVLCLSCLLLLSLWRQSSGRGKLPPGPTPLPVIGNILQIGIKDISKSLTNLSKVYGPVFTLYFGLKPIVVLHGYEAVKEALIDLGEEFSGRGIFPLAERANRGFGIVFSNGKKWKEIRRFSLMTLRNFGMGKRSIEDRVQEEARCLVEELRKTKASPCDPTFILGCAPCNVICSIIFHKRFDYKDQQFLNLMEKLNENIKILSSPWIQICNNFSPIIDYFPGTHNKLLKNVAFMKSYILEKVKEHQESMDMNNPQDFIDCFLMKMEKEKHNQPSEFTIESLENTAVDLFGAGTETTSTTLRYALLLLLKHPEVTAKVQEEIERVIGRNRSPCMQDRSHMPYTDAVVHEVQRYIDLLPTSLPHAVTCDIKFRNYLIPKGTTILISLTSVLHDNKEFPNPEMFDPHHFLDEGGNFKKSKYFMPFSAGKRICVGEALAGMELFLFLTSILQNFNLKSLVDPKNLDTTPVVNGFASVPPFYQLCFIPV
quantity-measured: % inhibition ± SD at 10 μΜ CYP2C9

**Query** Give % inhibition ± SD at 10 μΜ CYP2C9 for the following compound: C[N+](C)(C)CCOP(=O)([O-])OCCCCCn1cc(CCCCCCCCNC(=O)OCc2ccccc2)nn1 [Compound 31]
**Result** 8.95%
